So I've got a bunch of molecules here, and I need their log10 intrinsic clearance, human liver microsomes values.
Would you kindly interpret these values as log10 of intrinsic clearance, human liver microsomes expressed in mL/min/kg?

Could you tell me which log10 intrinsic clearance, human liver microsomes is on file for CCCc1cc(C(=O)Nc2ccc(-c3nnc(C)[nH]3)cc2)no1 ?
2.12

Query Cc1c(CN2CCC(Nc3ncnc4sc(CC(F)(F)F)cc34)CC2)ccc2c1cc(C#N)n2Cc1cn[nH]c1 next
2.13

Query COc1cc(OC)cc(N(CCNC(C)C)c2ccc3ncc(-c4cnn(C)c4)nc3c2)c1 next
1.25

Query O=c1c2oc3ccccc3c2ncn1Cc1ccc(F)c(F)c1 next
1.91

Query Cc1nc(CN2C[C@@H](c3ccc4c(c3)OCO4)[C@@H]3[C@H]2C2CCN3CC2)co1 next
1.99

Query c1nn(C2CCOCC2)cc1Nc1ncc2nnn(-c3ccc4cn[nH]c4c3)c2n1 next
1.99

Query CCOc1cccc(-c2cccc(N)n2)c1 next
2.37

Query COc1cc(CCNC2CCC3(CC2)OCCO3)ccc1F next
1.78

Query CO[C@@H](C(=O)Nc1cc2c(C)cc(=O)oc2cc1C)c1ccccc1 next
1.11

Query CNC(=O)C1(Cc2ccc(-c3cccnc3)cc2)CCN(Cc2ccc(F)cc2)C1 (configuration not stated) next
2.36

Query Oc1cccc(CN2CCN(c3ncc(Br)cn3)CC2)c1 next
1.47

Query Cc1ccc(Cn2nc(C(=O)N[C@@H]3C(C)(C)[C@@H]4CC[C@@]3(C)C4)cc2-c2ccc(Cl)c(C)c2)cc1 next
2.26

Query Nc1cnn(CC(=O)Nc2ccc(F)cc2)c1 next
1.21

Query Cc1ccn(-c2ccc3[nH]c4c(c3c2)CCCC4=O)n1 next
2.14

Query Clc1ccc2c(NCCN3CCOCC3)ncnc2c1 next
1.07

Query Cc1csc(Cc2nc(-c3ccc(O)cc3)no2)n1 next
1.18

Query c1ccc(C2(c3ccccc3)CCCN(Cc3nnc(C4CC4)o3)C2)cc1 next
2.39

Query COc1ccc(Nc2nc(N)nc(CN3CCN(Cc4ccccc4)CC3)n2)cc1 next
1.40

Query Cc1nc2cc(NC(=O)Cc3c(C)nc4ccccc4c3C)ccc2o1 next
0.93

Query CNC(=O)Cc1csc(-c2ccc(C)cc2)n1 next
2.03

Query C=CC(=O)Nc1cccc(Oc2nc(Nc3ccc(N4CCN(C)CC4)cc3)nc3ccoc23)c1 next
1.21

Query COc1ccc([C@H]2CN(C(C)=O)[C@@H]3CCCN(Cc4cccc(F)c4)[C@H]23)cc1 next
2.25

Query CCOc1ccc2c(c1)cc(CN1CCSCC1)c1nn(C)c(=O)n12 next
1.94

Query COC(=O)[C@@H]1Cc2ncn(Cc3ccccc3)c2CN1C(C)=O next
0.80

Query Cc1nn(-c2ccc(F)cc2)c2ncc(C(=O)Nc3nc(C4CC4)cs3)cc12 next
0.75

Query O=C(NCCc1ccccc1)c1ccc(NC(=O)N2CCCCc3ccccc32)cc1 next
2.41

Query COCc1ccc(-c2nc3c([nH]2)c(C)nn3C2CCCCC2)o1 next
1.71

Query Cc1noc(C)c1CC(=O)N1CCc2[nH]c3ccc(Br)cc3c2C1 next
2.22

Query Cc1ccc(NC(=O)c2cc(F)cc(F)c2)nc1 next
2.44

* * *

conditions: pH 6.8
So I've got a bunch of molecules here, and I need their aqueous solubility values.
Your answer is read as µg/mL, so omit the unit and give the number.

Could you tell me which aqueous solubility is on file for O=C(C1CCC1)N1CCC(c2ncc(-c3ccc(F)c(F)c3)[nH]2)CC1 ?
57.1

Query O=C(O)/C=C/c1ccc(Cn2ccnc2)cc1 next
50.6

Query COc1ccc(CNc2c(-c3ccc(OC)c(OC)c3)nc3cnccn23)cc1 next
46.9

Query O=C(Nn1cnc2ccccc21)c1cc(Cl)ccc1F next
40.2

Query Nc1nncc(-c2ccccc2OC(F)F)n1 next
38.9

Query COc1ccc(-c2nn3c(-c4ccco4)nnc3c3ccccc23)cc1 next
0.18

* * *

So I've got a bunch of compounds here, and I need their MDR1-MDCK efflux ratio values.

Could you tell me which MDR1-MDCK efflux ratio is on file for C=C1C[C@@H]2[C@H](CC[C@]3(C)C(=O)CC[C@@H]23)[C@@]2(C)C=CC(=O)C=C12 ?
0.494

Query Cc1noc(C2CCN(C(=O)C3(c4cccc(F)c4)CCC3)CC2)n1 next
0.861

Query Nc1cnc(Cc2ccc(F)cc2)nc1 next
0.67

Query O=C(Nc1nc(-c2cccnc2)cs1)C1CCCCC1 next
0.497

Query CN(Cc1n[nH]c2c1CCCC2)c1nccnc1C#N next
1.01

Query c1ccc(CNc2nn3nnnc3c3ccccc23)cc1 next
0.624

Query N#Cc1ccc2ncnc(N[C@H]3CC[C@H](N4CCOCC4)CC3)c2c1 next
24.6

Query Cc1cc(Nc2ccc(F)cn2)cc(C2CCN(C(=O)COc3ccccc3F)C2)n1 (stereo unspecified) next
9.5

Query CCN(CC)C(=O)N1CCC(C(=O)O)CC1 next
4.41

Query CC(C)n1ccc(C(=O)N2CCS(=O)(=O)C(C)(C)C2)n1 next
2.42

Query Cc1nc(-c2ccccc2)ccc1C(=O)N1CCCS1(=O)=O next
0.766

* * *

So I've got a bunch of compounds here, and I need their intrinsic clearance, human liver microsomes values.
Your answer is read as mL/min/kg, so omit the unit and give the number.

Could you tell me which intrinsic clearance, human liver microsomes is on file for Cc1cc2nc(CCC(=O)N3CCc4n[nH]cc4C3)[nH]c2cc1C ?
17.4

Query COc1ccc(-c2noc([C@@H]3CCCN3Cc3ccccc3)n2)cn1 next
89.6

Query O=C(Nc1cn(CCOCC(F)(F)F)nc1-c1ccccn1)c1coc(-c2cn[nH]c2)n1 next
51.7

Query O=C(NCc1ccccc1)c1ccc(NS(=O)(=O)c2ccc(C3CCCCC3)cc2)cc1 next
81

Query COc1ccccc1CNC(=O)c1cnc(C2CCN(C(=O)C(C)(C)C)CC2)nc1C next
218

Query CC(C(=O)Nc1ccccc1)N1CCCN(c2nccs2)CC1 (stereo unspecified) next
460

* * *

reportedEndpoint: intrinsic clearance, human liver microsomes (mL/min/kg)
Your answer is read as mL/min/kg, so omit the unit and give the number.

Could you tell me which intrinsic clearance, human liver microsomes is on file for Cc1cc(CCCC(=O)NC[C@H]2CC[C@H](c3ccc(C(N)=O)c(C)n3)CC2)ccc1F ?
214

Query Cc1nc(Nc2nccs2)cc(C2CN(c3ncccn3)C2)n1 next
30.3

Query Nc1ccccc1OCCn1ccnc1 next
7.07

Query CCc1c(C(=O)NCCc2ccc(N3CCCCC3)cc2)[nH]c2ccc(Cl)cc12 next
40.5

Query COc1ccc2nc(NCc3cnn(C)c3)ccc2c1 next
28.5

Query CSc1ccc(-c2ccc3n(c2=O)C[C@H]2C[C@@H]3CN(C(=O)c3ccncc3)C2)cc1 next
54

Query Clc1ccc2[nH]c(COc3ccccc3)nc2c1 next
27.9

Query COc1ccc(C2(NCc3cccc4ncccc34)CC2)cc1 next
261

Query c1cnc(N2CCC(Cc3ccncc3)CC2)nc1 next
10.9

Query CN(C)c1ccnc(NC(=O)c2cnsn2)c1 next
163

Query Cn1c(C2CC2)nc2c1CCN(c1ncnc3ccsc13)C2 next
31.9

Query CCc1cc(=O)[nH]c(SCCCCC2CCOCC2)n1 next
34.2

Query CN1C(=O)c2ccc(C(=O)N3CCN(C4CCCCC4)CC3)cc2C1=O next
18.5

Query O=C(CCc1ccc(-c2ccccc2)o1)N1CCC(n2c(=O)[nH]c3ccccc32)CC1 next
255

Query Cc1cc(C(=O)N2CCC(C(=O)c3ccnn3C)CC2)sc1C next
36.7

Query CC1(C)Cc2cc(NC(=O)c3cnn4cccnc34)c(N3CCN(CC(F)F)CC3)nc2O1 next
18.6

Query Cc1cccc(OCCn2c(N)nc3ccccc32)c1 next
4.93

* * *

reportedEndpoint: log10(intrinsic clearance, human liver microsomes) (log10 of the value in mL/min/kg)
Would you kindly interpret these values as log10 of intrinsic clearance, human liver microsomes expressed in mL/min/kg?

Could you tell me which log10(intrinsic clearance, human liver microsomes) is on file for COc1cc(-c2ccc(C)s2)cc2c1OCCN(c1noc(C)n1)C2 ?
1.76

Query Cc1cc(-c2cnn(CCNC(=O)c3sc(C)nc3C)c2C2CC2)on1 next
1.38

Query CCN(Cc1cnn(C(C)C)c1)C(=O)NCCC(C)(C)OC next
0.75

Query Cc1nc(NC(c2nccn2C)C2CC2)c2sccc2n1 (stereo not drawn) next
1.64

Query Cc1cccnc1CNC(=O)c1ccc(Cl)s1 next
1.60

Query CCC(=O)Nc1cccc(Oc2nc(Nc3ccc(N4CCN(C)CC4)cc3OC)ncc2Cl)c1 next
1.20

Query O=[N+]([O-])c1ccc(S(=O)(=O)Nc2cccc(-c3nc4ccccc4s3)c2)cc1 next
2.43

Query CCNC(=O)c1cc(C2CC2)nc2c1c(C)nn2-c1ccccn1 next
1.41

Query COc1ccc(OC)c(-c2cc(C(=O)N3CCCN(C(C)=O)CC3)no2)c1 next
1.11

Query Cc1cnccc1-c1cnc(N(C)C)nc1-c1ccco1 next
2.15

Query O=C(Nc1ccc2c(c1)N(CC(F)F)C(=O)CS2)C1CC=CC1 next
1.72

Query Cc1cc(Nc2ccc(F)cn2)cc(C2CCN(C(=O)Cn3nc(C)ccc3=O)C2)n1 (stereo not drawn) next
1.29

Query CN(C)CC(=O)N1CCC(c2ccc(NC(=O)c3nc(C#N)c[nH]3)c(C3=CCCCC3)c2)CC1 next
1.09

Query Clc1ccc(-c2ccc(CNCC3CCCO3)o2)c(Cl)c1 (stereo not drawn) next
1.74

Query C[C@@H](Cn1nc2c(cc1=O)CCCCC2)NC(=O)CCc1ccccc1 next
2.35

Data provenance is the Biogen ADME set (Fang et al. 2023).
